Test system: XF498
PROTOCOL_DETAILS: Antiproliferative activity against human XF498 cells after 96 hrs by MTT assay
Type: functional, cell-based
COND: XF498, 96 h
This listing pairs compounds with measured IC50.

COMPOUND: CCCc1ccc(N2C(=O)NC3(CSC4=C3C(=O)c3ncccc3C4=O)C2=O)cc1 (racemic)
SYSTEM_NAME: XF498
IC50, µM: 0.45
//
COMPOUND: O=C1NC(=O)C2(CSC3=C2C(=O)c2ncccc2C3=O)N1 (racemic)
SYSTEM_NAME: XF498
IC50, µM: 3.12
//
COMPOUND: O=C1NN(c2ccccc2)C(=O)C2(CSC3=C2C(=O)c2ncccc2C3=O)N1 (racemic)
SYSTEM_NAME: XF498
IC50, µM: 4.55

Origin of measurements: ChEMBL document CHEMBL1151746
